These entries and their values trace back to patent US9434686B2.

experiment: Pharmacokinetics of WT-161 in CD-1 mice after intravenous administration (plasma, LC-MS/MS); assay type: in vivo; conditions: male, mouse, plasma; CD-1 mice, IV 5 mg/kg
propertyName: Tmax (min)
Give bare numbers, in min.

[Q] Give the reported value of Tmax for this record: O=C(CCCCCCC(=O)N/N=C/c1ccc(N(c2ccccc2)c2ccccc2)cc1)NO
[A] 1.8

----------
assay: Pharmacokinetics of WT-161 in CD-1 mice after intravenous administration (plasma, LC-MS/MS); assay type: in vivo; details: male, CD-1, mouse, plasma, iv, 5 mg/kg, 6 hr post-dose, IV 5 mg/kg; LOQ 5 ng/mL; read-out: Concentration in plasma, individual mice 1-3
propertyName: concentration at 6 hr (ng/mL)
Numbers only, in ng/mL.

[Q] Indicate the recorded concentration at 6 hr value for this compound: O=C(CCCCCCC(=O)N/N=C/c1ccc(N(c2ccccc2)c2ccccc2)cc1)NO
[A] 5.87

----------
Experiment: Pharmacokinetics of WT-161 in CD-1 mice after intravenous administration (plasma, LC-MS/MS)
Type: in vivo
Settings: male, CD-1, mouse, plasma, iv, 5 mg/kg, 0.5 hr post-dose, IV 5 mg/kg; read-out: Concentration in plasma, individual mice 1-3
Experimental: WT-III-161 (Wt: 458.55 for free base) was dissolved in 25% DMSO, 25% Cremophor EL, and 50% saline to yield final concentration at 2 mg/mL for intravenous administration (pH=6-7). […] The concentrations of WT-161 in plasma were determined using a high pressure liquid chromatography/mass spectrometry (LC-MS/MS) method. […] The concentration in plasma below the limit of quantitation (LOQ=5 ng/mL) were designated as zero. […]
propertyName: concentration at 0.5 hr (ng/mL)
Give bare numbers, in ng/mL.

[Q] Supply measured concentration at 0.5 hr of O=C(CCCCCCC(=O)N/N=C/c1ccc(N(c2ccccc2)c2ccccc2)cc1)NO [WT-161] in your reply.
[A] 934

----------
Assay: Pharmacokinetics of WT-161 in CD-1 mice after intravenous administration (plasma, LC-MS/MS)
Format: in vivo
Settings: male, CD-1, mouse, plasma, iv, 5 mg/kg, 3 hr post-dose, IV 5 mg/kg
Method: WT-III-161 (Wt: 458.55 for free base) was dissolved in 25% DMSO, 25% Cremophor EL, and 50% saline to yield final concentration at 2 mg/mL for intravenous administration (pH=6-7). […] The concentrations of WT-161 in plasma were determined using a high pressure liquid chromatography/mass spectrometry (LC-MS/MS) method. […] The concentration in plasma below the limit of quantitation (LOQ=5 ng/mL) were designated as zero. […]
propertyName: concentration at 3 hr

[Q] Consider the compound O=C(CCCCCCC(=O)N/N=C/c1ccc(N(c2ccccc2)c2ccccc2)cc1)NO [WT-161] . State its measured concentration at 3 hr.
[A] 0.0163 µg/mL

----------
experiment: Pharmacokinetics of WT-161 in CD-1 mice after intravenous administration (plasma, LC-MS/MS); type: in vivo; settings: male, CD-1, mouse, plasma, iv, 5 mg/kg, 0.25 hr post-dose, IV 5 mg/kg; read-out: Concentration in plasma, individual mice 1-3
propertyName: concentration at 0.25 hr (ng/mL)
Answers are plain numbers, in ng/mL.

[Q] Name the recorded concentration at 0.25 hr of the compound listed here: O=C(CCCCCCC(=O)N/N=C/c1ccc(N(c2ccccc2)c2ccccc2)cc1)NO
[A] 2190
